System: Raji cells (human Burkitt lymphoma)
Experiment: Trypan blue exclusion assay, cytostatic activity, Raji
Format: cell-based
Conditions: incubation 24h, 4 experiments, read-out: ID50 (the source's name)
Observed Property: pIC50
pIC50 here is simply -log10 of the concentration when that concentration is written in mol/L.

Query: pIC50 lookup needed for CC(C)CCC1=C(O)C(C(=O)C(C)C)=C(O)C(CCC(C)C)(CCC(C)C)C1=O [HHC, hexahydrocolupulone] , thanks.
Result: 5.66

---

Test system: C1300 cells (mouse neuroblastoma)
Test: In vitro ID50 in C1300 mouse neuroblastoma cells
Assay type: cell-based
Conditions: Neuroblastoma cell; 48 hours of continuous exposure; preliminary data
Observed Property: IC50

Query: IC50 lookup needed for CC(C)CCC1=C(O)C(C(=O)C(C)C)=C(O)C(CCC(C)C)(CCC(C)C)C1=O [HHC, hexahydrocolupulone] , thanks.
Result: ~1.94 µM
